- systemUnderTest: T1, hIL-18BP-hFc (human, UniProt O95998 31-194, limits assumed)
- T1 sequence (looked up): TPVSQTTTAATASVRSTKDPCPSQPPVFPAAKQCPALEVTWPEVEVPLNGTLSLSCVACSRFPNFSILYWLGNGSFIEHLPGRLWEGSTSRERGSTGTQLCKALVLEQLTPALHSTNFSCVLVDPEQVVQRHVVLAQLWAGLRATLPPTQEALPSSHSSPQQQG
- procedureText: cell-based or functional assay
readoutName: EC50 (nM) in the Presence of 1 µg/mL hIL-18BP-hFc, PBMC assay (hIFNγ release)
Numeric answer only, unit nM assumed.

Form: binder = IL-18 variant polypeptide M36 (ligand) YFPKLSSKLSVIRNLNDQVLFIDQGNRPLFEDMTDSDCRDNAPRTIFIISMYKASDQRGMAVTISVKCEKISTLSCENKIISFKEMNPPDGIKDTKSDIIFFQRSVPGHDNKMQFESSSYEGYFLACEKERDLFKLILKKEDELGDRSIMFTVQNED ; EC50 (nM) in the Presence of 1 µg/mL hIL-18BP-hFc, PBMC assay (hIFNγ release) = 0.8
